System: P-glycoprotein (P-gp) or breast cancer resistance protein (BCRP)
Test: BCRP and P-gp Caco-2 permeability assay
Type: in vitro ADME
Details: efflux ratio, Caco-2 cells
MEASURED_PROPERTY: Caco-2 ER

Prompt line: Sample Cn1cc(N(CC2CCCCO2)S(=O)(=O)NC(=O)Nc2c3c(cc4c2CCC4)CCC3)cn1 (centres unmarked) [Compound 6] — what was its Caco-2 ER?
Response line: **** (“****” means <3)

Prompt line: Sample Cn1cc(N(C[C@H]2CCCO2)S(=O)(=O)NC(=O)Nc2c3c(cc4c2CCC4)CCC3)cn1 [Compound 1B] — what was its Caco-2 ER?
Response line: **** (“****” means <3)

Prompt line: Sample Cn1cc(N(C[C@@H]2CCCO2)S(=O)(=O)NC(=O)Nc2c3c(cc4c2CCC4)CCC3)cn1 [Compound 1A] — what was its Caco-2 ER?
Response line: **** (“****” means <3)

Source listed as patent US20240043410A1.
